Collected self-cleavage values appear next to each entry.
B1: Hairpin Ribozyme (parent)
chain: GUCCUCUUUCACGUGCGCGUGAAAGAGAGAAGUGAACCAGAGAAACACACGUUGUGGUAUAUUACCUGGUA

Variants of: B1
assay-procedure: self-cleavage, relative activity (ratio to wild type); higher = more cleavage; co-transcriptional
reported-metric: self-cleavage

1. C37G C66G : 0.154
2. G27C G56U : 0.131
3. A31G U60A : 0.677
4. C10A A71G : 0.915
5. U14C G34U : 1.54
6. U14A C37U : 0.481
7. A31U G34A : 0.0803
8. C6A A11G : 0.635
9. G19U C65G : 0.405
10. A39U U70G : 0.333
11. G56U U60C : 0.135
12. A61C U67C : 0.107
13. G29A G54A : 0.141
14. G57U U70A : 0.266
15. A39G G54U : 0.163
16. U5C U9C : 0.457
17. G25A G68C : 0.22
18. C6A U70C : 0.618
19. C37G A47C : 0.14
20. U9C G32C : 0.0478
21. U7A A44G : 0.201
22. G1C U9A : 0.117
